assay: DUSP6 inhibitors restoring Erk phosphorylation by chemical complementation, primary imaging in DUSP6-transfected HeLa (AID 609); settings: HeLa MKP-3 transfected, phospho-Erk imaging KS statistic; measured here: cell density z-score; at 10 µM; cells stimulated with TPA for 15 min
Mark false for z-score values under -0.3, and true for everything at or above.

| Molecule | Group |
| --- | --- |
| Cn1c(=NCC(O)COc2ccccc2)sc2ccccc21 (stereo not drawn) | true |
| CCCCCNC(=O)c1c(N)n(/N=C/c2ccco2)c2nc3ccccc3nc12 | true |
| O=c1oc2cc(O)ccc2c2oc3cc(O)ccc3c12 | true |
| COc1ccc(S(=O)(=O)N2CCC(N3CCCCC3)CC2)cc1 | true |
| CCCCCCc1cc2cc(-c3nnc(-c4ccccc4O)o3)c(=O)oc2cc1O | true |
| COc1cccc(Cn2c(Oc3ccccc3)nc3c2c(=O)n(C)c(=O)n3C)c1 | false |
| CCOC(=O)C1/C(=N\O)CC(C)(O)C(C(=O)OCC)C1c1ccc(N(C)C)cc1 (stereo not drawn) | true |
| O=C(O)c1cnn2c(C(F)(F)F)cc(-c3ccco3)nc12 | true |
| Cc1cccc(COc2ccc(/C(O)=C3\C(=O)C(=O)N(CCN(C)C)C3c3ccncc3)cc2)c1 (stereo not drawn) | false |
| COC(=O)CC1=C(C(=O)OC)C(c2ccc3c(c2Cl)OCO3)C(C#N)=C(N)O1 (stereo not drawn) | true |
| CC(C)CN1C(=O)NC(NC(=O)c2cccnc2)(C(F)(F)F)C1=O (stereo not drawn) | true |
| NS(=O)(=O)c1cc2c(cc1C(F)(F)F)NC(Cc1ccccc1)NS2(=O)=O (stereo not drawn) | false |
| O=C1OC(Nc2ccc(Br)cn2)c2ccccc21 (stereo not drawn) | false |
| CCOC(=O)CSC1=C(C#N)C(=O)NC(c2ccc(OC)c(OC)c2)S1 (stereo not drawn) | false |
| S=c1nc(-c2ccccc2)[nH]n1-c1ccccc1 | true |
| O=C(O)CCCC(=O)Nc1ccn(-c2ccccc2)n1 | true |
| CC1(C)Cc2c(C#N)c(OCC(=O)c3ccc(Cl)cc3)nc(-c3ccoc3)c2CO1 | false |
| CCOc1nc(-c2ccncc2)nc2ccccc12 | false |
| Cc1ccc(NC(=O)CSC2=C(C#N)C(c3ccco3)C3=C(CCCC3=O)N2)cc1 (stereo not drawn) | true |
| O=C(C1=C(O)C(=O)N(CCCN2CCOCC2)C1c1ccccn1)c1cccs1 (stereo not drawn) | false |
| Cc1cccc(OCc2nc(C)cc(=O)[nH]2)c1 | true |
| CC(C)Oc1ccc(Cc2c(O)nc(NCCCN(C)C)[nH]c2=O)cc1 | true |

* * *

# z-score per entry
experiment: DUSP6 inhibitors restoring Erk phosphorylation by chemical complementation, primary imaging in DUSP6-transfected HeLa (AID 609); details: HeLa MKP-3 transfected, phospho-Erk imaging KS statistic; measured here: nuclear pErk red intensity z-score; at 10 µM; stronger effect = higher value; cells stimulated with TPA for 15 min
Measured metric: z-score

| Compound | Measured metric | Reported measurement |
| --- | --- | --- |
| COC(=O)c1ccccc1N1C(=O)[C@@H]2C(c3ccc(Br)cc3)=NO[C@@H]2C1=O | z-score | -1.22 |
| CCCOc1ccc(N2C(=O)C3ON(c4ccccc4)C(c4ccc(O)c(OC)c4)C3C2=O)cc1 (stereo not drawn) | z-score | -0.338 |
| COC(=O)c1ccc(C2NC(C(=O)O)CS2)cc1 (stereo not drawn) | z-score | -1.57 |
| COc1cc([C@@H]2[C@H]3CN(C)CC=C3C(C#N)=C(N)C2(C#N)C#N)cc2c1OCO2 | z-score | 0.31 |
| CCOc1cccc(-c2nnc3sc(COc4ccccc4)nn23)c1 | z-score | -0.568 |
| CC(O)Cn1ccccc1=N (stereo not drawn) | z-score | 0.0768 |
| CNC(=O)c1cc2c(ccc3ccccc32)oc1=N | z-score | -0.558 |
| CCC(NC(=O)Nc1cc(OC)c(OC)c(OC)c1)(C(F)(F)F)C(F)(F)F | z-score | 0.038 |
| Cn1nnc2c(sc3nc(N4CCOCC4)c4c(c32)CCCC4)c1=O | z-score | -2.88 |
| COC(=O)CSc1nc2sc3c(c2c(=O)n1C1CCCCC1)CCN(C)C3 | z-score | 1.03 |
| c1ccc(CSc2nnc(SCc3ccccn3)s2)nc1 | z-score | 0.36 |
| CCOC(=O)C1=C(c2ccccc2)NC(SCC(=O)Nc2ccccc2C)=C(C#N)C1c1ccco1 (stereo not drawn) | z-score | -0.0556 |
| COCCCNC(=O)C(C#N)c1nc2ccccc2nc1N1CCN(Cc2ccccc2)CC1 (stereo not drawn) | z-score | -0.556 |
| CCCc1[nH]nc2c1C(c1cccc(OC)c1)C(C#N)=C(N)O2 (stereo not drawn) | z-score | 0.801 |
| COc1cccc(-c2nnc3sc(-c4cccs4)nn23)c1 | z-score | -0.177 |
| COc1ccc2[nH]c3c(N4CCN(Cc5ccc6c(c5)OCO6)CC4)ncnc3c2c1 | z-score | 0.0587 |
| Cc1cc(OCCN2CCCCC2)nc2ccccc12 | z-score | -0.992 |
| O=C(NCCOCCOCCNC(=O)c1cccnc1)c1cccnc1 | z-score | -0.654 |
| CSc1nc(N)c(C#N)c(-c2ccccc2Cl)c1C#N | z-score | -0.0312 |
| Cc1nnc(C)n1/N=C/c1cccn1C | z-score | -1.42 |
| CS(=O)(=O)Nc1ccc([N+](=O)[O-])cc1Oc1ccccc1 | z-score | -0.635 |
| CNc1nc(C)c(C#N)cc1C(C)=O | z-score | -0.65 |
| COc1ccc2[nH]c(C)c(C(=O)CN3CCN(C(=O)c4ccco4)CC3)c2c1 | z-score | 0.0705 |

* * *

# inhibition per entry
experiment: inhibitors of E-selectin induction by TNFa, primary screen, imaging, HUVEC, immunofluorescence, MLSMR starter and 10KST1 sets (AID 487); details: HUVEC TNFalpha-induced E-selectin immunofluorescence imaging, at 2 µM; stronger effect = higher value;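 note: signal is fraction of cell area covered by stained E-selectin grains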

| Compound | inhibition [%] |
| --- | --- |
| Cc1cc2c(c(=O)o1)C(Cc1ccccc1)C(C#N)=C(N)O2 (configuration not stated) | -45.5 |
| COc1ccc(N/C=C(\C#N)c2nc3ccccc3n2C)c(OC)c1 | -18 |
| COC(=O)C(NC(C)=O)(Nc1ccccn1)C(F)(F)F (configuration not stated) | -61.1 |
| Cc1ccc(/C=N/n2nnnc2N)o1 | -8.1 |
| CCN(CC)CCCN1C(=O)C(=O)/C(=C(/O)c2ccc(Cl)cc2)C1c1ccccn1 (configuration not stated) | -70.8 |
| N#CC(C(=O)NC1CCCCC1)c1nc2ccccc2nc1N1CCN(c2ccccc2F)CC1 (configuration not stated) | -71.6 |
| c1ccc2c(c1)NC(c1ccncc1)n1c-2nc2ccccc21 (configuration not stated) | -118 |
| COC(=O)c1c(C)noc1-c1cc(C)on1 | 63.3 |
| COC(=O)CC1SC(=O)NC1=O (configuration not stated) | -98.9 |
| COc1ccc(-c2oc3ncn4nc(COc5ccccc5)nc4c3c2-c2ccc(OC)cc2)cc1 | -75 |
| CC[C@H]1OC(=O)C[C@@H](O)[C@H](C)[C@@H](O[C@@H]2O[C@H](C)C[C@H](N(C)C)[C@H]2O)[C@@H](CC=O)C[C@@H](C)C(=O)C=C[C@]2(C)O[C@H]2[C@@H]1C | -120 |
| Cc1cc(=O)oc(C)c1C(=O)NCCN1CCOCC1 | -10.6 |
| CCN(CC)CCCN1C(=O)C(=O)/C(=C(/O)c2ccc(C)cc2)C1c1ccccn1 (configuration not stated) | -85.1 |
| CC1(C)Cc2nc(N)c(C(=O)NCCO)cc2CO1 | 15.2 |
| CN=c1sc2ccccc2n1CC(O)COc1ccccc1 (configuration not stated) | -95.8 |
| COc1cccc(-c2nc(N3CCCCC3)c3ccccc3n2)c1O | -31.1 |
| O=C1CC(c2ccccc2)NC(=O)N1 (configuration not stated) | 23 |
| COc1ccc(Cn2c(=O)c3c(nc(NCCO)n3C)n(C)c2=O)cc1 | -129 |
| CN/C(=C/[N+](=O)[O-])NCCSCc1ccc(CN(C)C)o1 | -23.6 |
| Clc1ccccc1-c1nnc2sc(-c3ccco3)nn12 | 37.2 |
| N#C/C(=C\N1CCN(Cc2ccc3c(c2)OCO3)CC1)c1nc2ccccc2s1 | -122 |
| CC(=O)[C@@]1(O)CC[C@H]2[C@@H]3C[C@H](C)C4=CC(=O)CC[C@]4(C)[C@H]3CC[C@@]21C | -107 |

* * *

# z-score per entry
test: DUSP6 inhibitors restoring Erk phosphorylation by chemical complementation, primary imaging in DUSP6-transfected HeLa (AID 609); details: HeLa MKP-3 transfected, phospho-Erk imaging KS statistic; measured here: nuclear c-Myc green intensity z-score; at 10 µM; cells stimulated with TPA for 15 min
Measured metric: z-score

| Molecule | Reported measurement |
| --- | --- |
| CCC(NC(=O)Nc1ccc(O)cc1)(C(F)(F)F)C(F)(F)F | 0.673 |
| CC(C)(C)NCc1cc2ccccc2[nH]c1=O | 1.15 |
| CCN(CC)CCOC(=O)C(c1ccccc1)c1ccccc1 | -0.778 |
| Cc1ccc(C2C(C(=O)c3cc4ccccc4o3)=C(O)C(=O)N2CCCN(C)C)cc1 (configuration not stated) | -1.28 |
| Cc1ccc(CC2CC(=O)N(c3ccc4c(c3)OCCO4)C2=O)cc1 (configuration not stated) | -1.24 |
| c1ccc(CN2CCN(c3ncnc4c3[nH]c3ccccc34)CC2)cc1 | -1.18 |
| Cc1nnc(C)n1/N=C/c1cccn1C | 2.09 |
| N#Cc1c(-c2ccco2)cc(C2CC2)nc1N | -0.229 |
| COc1ccc(-n2c(SCC(N)=O)nc3sc4c(c3c2=O)CCN(C)C4)cc1 | 1.95 |
| CN1[C@@H](CC(=O)c2ccccc2)CCC[C@H]1C[C@H](O)c1ccccc1 | -0.85 |
| CCOc1ccc(CSC(CC(=O)O)C(=O)O)cc1 (configuration not stated) | -0.101 |
| CC1(C)CC(N(Cc2ccco2)C(=O)Cc2ccccc2)CCO1 (configuration not stated) | 2.8 |
